List of TGI values.
# Test system: K-562 leukemia
# experiment: NCI tumour cell line growth inhibition, 48 h

For the compound shown here, CN(C)CC1CN=C(N)O1 (centres undefined) , give the reported TGI.
> 100 µM

Another compound to look at: COc1ccc(/C(COc2ccc3c(=O)c(-c4ccccc4)coc3c2)=N\O)cc1
> 100 µM

Please give the result for O=C(O)Cc1cc(=O)[nH]c2c1/C(=N/O)CCC2 too.
> 100 µM

====

# System: SN12C renal
# experiment: NCI tumour cell line growth inhibition, 48 h; in the data active = GI50 below about 0.43 µM; inactive = the rest
Assign a class; possible classes are 1 for active, -1 for inactive

Use these answered entries as a reference point.
molecule: COC(=O)c1cc2c3ccccc3n3c(=O)c4cc5ccccc5nc4c(n1)c23
label: -1

molecule: COc1ccc(-c2cc(-c3ccc(Cl)cc3)nc(SCCCC(=O)NO)n2)cc1
label: -1

molecule: NC1CCC(Nc2nc(NCc3ccc(-c4ccccc4O)nc3)c3ncn(C4CCCC4)c3n2)CC1 (configuration not stated)
label: 1

I'd appreciate the recorded outcome for COC(=O)CC[C@]1(C)O[C@H]2[C@H]([C@@H](C)CCCC(C)=O)OC(=O)[C@@H]2C[C@H]1O from this test.
-1

Also need CS(=O)(=O)CCNCc1ccc(-c2ccc3ncnc(Nc4ccc(OCc5ccccc5)c(Br)c4)c3c2)o1 , thanks.
-1

Same read-out for Cc1cc(O)cc2c1[C@]1(C)CCC3C(C)(C)CCC[C@]3(C)[C@H]1C2 (some centres not stated) ?
-1

Another: C=C(NC(=O)C(=C)NC(=O)c1csc(C2=NC3c4csc(n4)C4NC(=O)c5csc(n5)C(C(C)(O)C(C)O)NC(=O)C5CSC(=N5)C(=CC)NC(=O)C(C(C)O)NC(=O)c5csc(n5)C3(CC2)NC(=O)C(C)NC(=O)C(=C)NC(=O)C(C)NC(=O)C(C(C)CC)NC2C=Cc3c(C(C)O)cc(nc3C2O)C(=O)OC4C)n1)C(N)=O (configuration not stated)
-1

====

# System: UACC-257 melanoma
# experiment: NCI tumour cell line growth inhibition, 48 h; in the data active = GI50 below about 0.43 µM; inactive = the rest
Result category, one only: active, inactive

# count of solved cases: 8
molecule: NC1CCC(Nc2nc(NCc3ccc(-c4ccccc4O)nc3)c3ncn(C4CCCC4)c3n2)CC1 (configuration not stated)
label: active
//
molecule: COc1ccc(-c2oc(=O)ccc2-c2cc(OC)c(OC)c(OC)c2)cc1O
label: inactive
//
molecule: Cc1c2c(cc[n+]1Cc1ccccc1)c1ccc(OCc3ccccc3)cc1n2Cc1ccccc1
label: active
//
molecule: Cc1ccc(NC2=C(Cl)C(=O)N(Cc3ccc(Cl)cc3)C2=O)cc1O
label: inactive
//
molecule: Nc1c2c(c(O)c3c1=C(CO)C=N3)=NCCS2
label: active
//
molecule: c1cc(N2CCCN(c3ccc(C4=NCCCN4)cc3)CC2)ccc1C1=NCCCN1
label: inactive
//
molecule: Cc1cc(O)cc2c1[C@]1(C)CCC3C(C)(C)CCC[C@]3(C)[C@H]1C2 (some centres not stated)
label: inactive
//
molecule: N#CC1=C(N)Oc2c(ccc3ccccc23)C1c1ccccc1 (configuration not stated)
label: inactive

Give the logged outcome of this assay for the following molecule: Cc1ccc2c(-c3ccnc(Nc4ccccc4)n3)c(-c3ccc(F)cc3)nn2n1
inactive

Another: COc1cc(-c2ccc(-c3ccc(C(=N)N)nc3)s2)cc(OC)c1OC
inactive

Moving on to CC(=Nc1ccccc1)C1=C(O)C(Cc2ccc(O)cc2)NC1=O (configuration not stated)
inactive

Entry to check: COc1ccc(/C(COc2ccc3c(=O)c(-c4ccccc4)coc3c2)=N\O)cc1
inactive

====

# Test system: KM20L2 colon
# experiment: NCI tumour cell line growth inhibition, 48 h
measuredQuantity: TGI

Some solved entries appear below for comparison.
molecule: CCN(CC)CCCNC(=O)C1COc2cc(-c3cc(=O)c4ccccc4o3)ccc2O1 (stereo not given)
measuredQuantity: TGI
result: > 100 µM
--
molecule: COc1ccc(NC(=O)CC/C(CC(=O)C(C)(C)C)=N\NC(=O)C(=O)NN)cc1
measuredQuantity: TGI
result: > 100 µM
--
molecule: COc1ccc(-c2cc(=O)c3ccccc3o2)cc1N
measuredQuantity: TGI
result: > 100 µM
--
molecule: NC(=O)CCC(Nc1c2ccccc2nc2ccccc12)C(=O)O (stereo not given)
measuredQuantity: TGI
result: > 100 µM
--
molecule: O=C(CCc1nnc2s/c(=C\c3ccc(Cl)c(Cl)c3)c(=O)n12)Nc1ccc(Cl)c(Cl)c1
measuredQuantity: TGI
result: > 100 µM
--
molecule: C[C@]12CC[C@H](OC3OC(CO)C(O)C(O)C3O)C[C@H]1CC[C@@H]1[C@@H]2CC[C@]2(C)[C@@H](C3=CCOC3=O)CC[C@]12O (stereo not given in full)
measuredQuantity: TGI
result: 50 µM
--
molecule: c1ccc2c(NCCCCCCNc3c4ccccc4nc4ccccc34)c3ccccc3nc2c1
measuredQuantity: TGI
result: 3.05 µM
--
molecule: COc1ccc2cc3[nH]c(=O)cc(O)c3cc2c1OC
measuredQuantity: TGI
result: > 100 µM
--
molecule: CCCCCCCCCCCCCCCCCCN(C)C(COC)COP(=O)([O-])OCC[N+](C)(C)C (stereo not given)
measuredQuantity: TGI
result: 6.92 µM

Return reported TGI; argument: O=C(c1ccccc1)c1c(-c2ccccc2)sc2nc3ccccc3nc12
> 100 µM

====

# System: NCI/ADR-RES ovarian
# experiment: NCI tumour cell line growth inhibition, 48 h; in the data active means GI50 below about 0.43 µM; inactive means the rest
Select the matching outcome among Y (active), N (inactive)

compound: Cc1cc(O)cc2c1[C@]1(C)CCC3C(C)(C)CCC[C@]3(C)[C@H]1C2 (some centres undefined)
label: N

How did this test come out for Nc1c2c(c(O)c3c1=C(CO)C=N3)=NCCS2 ?
Y

// same read-out, input: CC(=Nc1ccccc1)C1=C(O)C(Cc2ccc(O)cc2)NC1=O (centres undefined)
Y

Query CCCN(CCC)c1ccc(/C=C/c2ccc3cc(OCC)ccc3n2)cc1 next
N

Moving on to the next compound: COc1cccc(/C=C/[N+](=O)[O-])c1
N

Now give it for COc1cc2ncn(-c3cc(O[C@@H](C)c4ccccc4Cl)c(C(N)=O)s3)c2cc1OC too.
N

Try this compound too: C=C1C(=O)O[C@H]2[C@H]1CC/C(COC(=O)C(=O)c1cn(C)c3ccc(Cl)cc13)=C\CC[C@@]1(C)O[C@@H]21
N

Same again, this time with COc1cc2c(cc1OC)-c1ccc3cc4c(cc3c1N(CCCn1ccnc1)C2)OCO4
N

Could you do the same for NC1CCC(Nc2nc(NCc3ccc(-c4ccccc4O)nc3)c3ncn(C4CCCC4)c3n2)CC1 (centres undefined) , please?
Y

====

# Tested on: NCI-H226 lung
# experiment: NCI tumour cell line growth inhibition, 48 h
Where a SMILES comes first, the peptide text is derived from it. [ ]: non-standard residue; d: D form. The star is where a group is joined. Iva = CC[C](C)(N)C(=O)O; Boc = CC(C)(C)OC(=O)*; X52 = C1CCC(=NO*)C1
measuredQuantity: TGI

compound: COC(=O)c1cc2c3ccccc3n3c(=O)c4cc5ccccc5nc4c(n1)c23
TGI: > 100 µM

Record request: TGI value, item COc1cccc2c1CCc1cc3c(N)nc(N)nc3nc1-2
43.2 µM

Another: CCC(C)(NC(=O)C(C)NC(=O)OC(C)(C)C)C(=O)NC(C)C(=O)NC(C)(CC)C(=O)ON=C1CCCC1 (centres undefined) (Boc-A[Iva]A[Iva]-X52; configuration not given here)
> 100 µM

Same question for O=c1[nH]/c(=C/c2ccc(OCc3ccccc3)cn2)c(=O)[nH]/c1=C/c1ccc(F)cc1 please.
> 44.3 µM

====

# Test system: EKVX NSCLC
# experiment: NCI tumour cell line growth inhibition, 48 h
Measured TGI, listed per entry.

Worked set:
compound: C=C1C(=O)O[C@@H]2[C@@H]3O[C@@H](C[C@@H]13)[C@](C)(O)CC/C=C(\C)CCC[C@@H]2C
TGI: 32 µM
//
compound: Cc1c(S(=O)(=O)O)ccc(N=Nc2c(O)c(C(=O)O)cc3ccccc23)c1Cl
TGI: > 100 µM
//
compound: CC(=Nc1ccccc1)C1=C(O)C(Cc2ccc(O)cc2)NC1=O (stereo not given)
TGI: > 100 µM
//
compound: C=C(C)[C@@H]1CC[C@]2(C(=O)O)CC[C@]3(C)[C@H](CC[C@@H]4[C@@]5(C)CCC(NC(=O)c6cccc(OC(C)=O)c6OC(C)=O)C(C)(C)[C@@H]5CC[C@]43C)[C@@H]12 (stereo not given in full)
TGI: > 100 µM
//
compound: O=C1Cc2c([nH]c3ccccc23)-c2ccccc2N1
TGI: > 100 µM

Form entry - test system: EKVX NSCLC; read-out: TGI; compound: O=C(O)CCCSc1ccccc1
> 100 µM

Another compound to check: CC1CN=C(Nc2ccccc2)S1 (stereo not given)
> 100 µM

Another compound to check: O=C1NC(=O)C(c2ccccc2Cl)=C1Nc1cc(Cl)c(O)c(Cl)c1
> 25 µM

Please give the result for COc1cccc2c1CCc1cc3c(N)nc(N)nc3nc1-2 too.
15.3 µM

Ok, now C=CC1CCC[N+]1(CC(=O)OCC)Cc1ccccc1 (stereo not given)
> 100 µM
